targetSystem: full length human Androgen Receptor (AR) (Homo sapiens, UniProt P10275)
Construct: transiently transfected in T225 cm^2 flasks with a full length human Androgen Receptor (AR) cDNA; expressed in transfected cells; host or cells: CV-1 cells (ATCC CCL-70), transiently transfected with AR cDNA in pcDNA3 and ARE-luciferase in pGL3
Sequence (P10275 whole entry): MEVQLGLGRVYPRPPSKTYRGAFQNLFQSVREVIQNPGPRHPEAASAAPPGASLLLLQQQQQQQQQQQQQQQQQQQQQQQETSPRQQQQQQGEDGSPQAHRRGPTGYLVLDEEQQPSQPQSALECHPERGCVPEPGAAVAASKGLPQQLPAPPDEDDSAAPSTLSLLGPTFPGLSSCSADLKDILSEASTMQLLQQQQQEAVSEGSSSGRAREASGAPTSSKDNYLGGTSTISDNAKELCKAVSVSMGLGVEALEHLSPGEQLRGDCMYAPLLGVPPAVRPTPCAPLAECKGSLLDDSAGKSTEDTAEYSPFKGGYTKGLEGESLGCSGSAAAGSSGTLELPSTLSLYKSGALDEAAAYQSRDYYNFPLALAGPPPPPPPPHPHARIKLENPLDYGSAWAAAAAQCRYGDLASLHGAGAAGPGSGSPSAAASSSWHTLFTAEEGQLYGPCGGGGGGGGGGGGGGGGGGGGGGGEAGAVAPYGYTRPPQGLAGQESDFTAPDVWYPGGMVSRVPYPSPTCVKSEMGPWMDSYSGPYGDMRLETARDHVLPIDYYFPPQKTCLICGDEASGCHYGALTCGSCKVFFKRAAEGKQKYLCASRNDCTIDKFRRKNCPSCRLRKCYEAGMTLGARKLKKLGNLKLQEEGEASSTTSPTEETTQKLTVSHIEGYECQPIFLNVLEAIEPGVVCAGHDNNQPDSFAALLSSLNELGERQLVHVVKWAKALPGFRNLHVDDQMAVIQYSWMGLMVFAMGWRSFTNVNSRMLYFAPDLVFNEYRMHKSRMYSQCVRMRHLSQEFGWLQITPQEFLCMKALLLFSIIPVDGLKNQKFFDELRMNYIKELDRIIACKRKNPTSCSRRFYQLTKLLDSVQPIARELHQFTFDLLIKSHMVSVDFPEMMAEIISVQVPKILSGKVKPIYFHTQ
assayProcedure: Androgen Receptor-Mediated Transcriptional Assay (ARE-luciferase reporter in transiently transfected CV-1 cells)
Assay type: cell-based
appliedConditions: CV-1 cells transfected with human AR and ARE-luciferase; 16-18 hours incubation; luminescence; read-out: EC50 Values for Compounds 1-22 from Androgen Receptor-Mediated Transcriptional Assay
endpoint: log10 EC50 (log10 of the value in nM)

[[record]]
compound = "C[C@H]1CNS(=O)(=O)N(c2ccc3c(C#N)nccc3c2)C1 [Compound 11]"
targetsystem = "full length human Androgen Receptor (AR) (Homo sapiens, UniProt P10275)"
endpointvalue = 2.84

[[record]]
compound = "Cc1cccc(C[C@@H]2CNS(=O)(=O)N(c3ccc4c(C#N)nccc4c3)C2)c1 (single isomer, unassigned) [Compound 15]"
targetsystem = "full length human Androgen Receptor (AR) (Homo sapiens, UniProt P10275)"
endpointvalue = 2.29

[[record]]
compound = "Cc1ccc([C@@H]2CNS(=O)(=O)N(c3ccc4c(C#N)nccc4c3)C2)cc1 (single isomer, unassigned) [Compound 19]"
targetsystem = "full length human Androgen Receptor (AR) (Homo sapiens, UniProt P10275)"
endpointvalue = 2.25

[[record]]
compound = "N#Cc1nccc2cc(N3[C@H](CC(F)(F)F)CNS3(=O)=O)ccc12 (single isomer, unassigned) [Compound 3]"
targetsystem = "full length human Androgen Receptor (AR) (Homo sapiens, UniProt P10275)"
endpointvalue = 1.90

[[record]]
compound = "C[C@H]1CCS(=O)(=O)N1c1ccc2c(C#N)nccc2c1 [Compound 8]"
targetsystem = "full length human Androgen Receptor (AR) (Homo sapiens, UniProt P10275)"
endpointvalue = 2.43

[[record]]
compound = "C[C@H]1CN(C)S(=O)(=O)N1c1ccc2c(C#N)nccc2c1 [Compound 5]"
targetsystem = "full length human Androgen Receptor (AR) (Homo sapiens, UniProt P10275)"
endpointvalue = 0.70

[[record]]
compound = "CCCC1CNS(=O)(=O)N(c2ccc3c(C#N)nccc3c2)C1 (racemic) [Compound 22]"
targetsystem = "full length human Androgen Receptor (AR) (Homo sapiens, UniProt P10275)"
endpointvalue = 2.76

[[record]]
compound = "N#Cc1nccc2cc(N3C[C@H](c4ccccc4)CNS3(=O)=O)ccc12 [Compound 12]"
targetsystem = "full length human Androgen Receptor (AR) (Homo sapiens, UniProt P10275)"
endpointvalue = 2.34


====

targetSystem: full length human Androgen Receptor (AR) (Homo sapiens, UniProt P10275)
Construct: transiently transfected in T225 cm^2 flasks with a full length human Androgen Receptor (AR) cDNA; expressed in transfected cells; host or cells: CV-1 cells (ATCC CCL-70), transiently transfected with AR cDNA in pcDNA3 and ARE-luciferase in pGL3
assayProcedure: Androgen Receptor-Mediated Transcriptional Assay (ARE-luciferase reporter in transiently transfected CV-1 cells)
Format: cell-based
pEC50: −log10 of the molar value.
endpoint: pEC50

[[record]]
molecule = "C[C@H]1CC[C@@H]([C@H](O)C(F)(F)F)N1c1ccc2c(C#N)nccc2c1 (single isomer, unassigned) [Compound 38]"
endpointvalue = 6.73

[[record]]
molecule = "C[C@H]([C@@H](O)C(F)(F)F)N(C)c1ccc2c(C#N)nccc2c1 (single isomer, unassigned) [Compound 26]"
endpointvalue = 10.00

[[record]]
molecule = "N#Cc1nccc2cc(N3CCC[C@@H]3[C@@H](O)C(F)(F)F)ccc12 (single isomer, unassigned) [Compound 34]"
endpointvalue = 10.00

